# Test system: Malme-3M
# method: NCI tumour cell line growth inhibition, 48 h
Calls of active or inactive are those of the source. Rule as the data show it: active = GI50 up to about 1.1 µM and inactive = higher.

compound	GI50
COc1ccc(C2C(C#N)=C(S)N(C3OC(COC(C)=O)C(OC(C)=O)C(OC(C)=O)C3OC(C)=O)C(C)=C2C(C)=O)cc1 (configuration not stated)	> 100 µM (inactive)
c1ccc2oc(-c3ccc(-c4nc5ccccc5o4)c4c3CC4)nc2c1	> 100 µM (inactive)
C=C(CS(=O)(=O)c1ccccc1)C(=O)OCC	16.1 µM (inactive)
Cc1cc(C)c(S(=O)(=O)N2CCCN(S(=O)(=O)c3c(C)cc(C)cc3C)OCCCON(S(=O)(=O)c3c(C)cc(C)cc3C)CCCN(S(=O)(=O)c3c(C)cc(C)cc3C)OCCCO2)c(C)c1	> 100 µM (inactive)
CC(c1ccccc1)N1O[C@]12CC[C@@]1(C)C(CCCC13OCCO3)C2 (some centres not stated)	32.1 µM (inactive)
C1CCC2(CC1)O[C@@H]1[C@@H](O2)[C@@H](O[C@H]2O[C@@H]3COC4(CCCCC4)O[C@H]3[C@@H]3OC4(CCCCC4)O[C@@H]23)O[C@@H]2COC3(CCCCC3)O[C@@H]12	> 100 µM (inactive)
CCOC(=O)CC(NC(=O)c1ccc(/N=N/N(C)C)cc1)C(=O)OCC (configuration not stated)	> 100 µM (inactive)
